# System: NCI-H841 complex tumor spheroid viability
# Test Summary: Anticancer human tumor NCI-H841 cell line growth inhibition;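 note: spheroids exposed to compounds for 7 days before readout; 100% = DMSO vehicle control wells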
# Setup Conditions: second compound 0.0003 µM; first compound 10 µM; active compounds read low
Measured viability, T/C values are reported for all entries that follow.
Note: unit % is implicit; provide only the numeric part.

COc1ccc([C@@H](O)c2cc(-c3ncnc4cc(N5CCOCC5)ccc34)c(F)cc2Cl)nn1 + COc1cc2c(cc1O)CCNC21CSC2c3c(OC(C)=O)c(C)c4c(c3C(COC1=O)N1C(O)C3Cc5cc(C)c(OC)c(O)c5C(C21)N3C)OCO4
0.12

Inquiry: For the record COc1cc(C)[nH]c(=O)c1CN1CCc2c(Cl)cc(C(OC)C3COC3)c(Cl)c2C1=O (configuration not stated) + COc1cc2c(cc1O)CCNC21CSC2c3c(OC(C)=O)c(C)c4c(c3C(COC1=O)N1C(O)C3Cc5cc(C)c(OC)c(O)c5C(C21)N3C)OCO4 , what value of viability, T/C is listed for NCI-H841 complex tumor spheroid viability?
Reply text: 5.83
